The measurements presented in this section are drawn from patent US20170008921A1.

Assignment: determine reported viability at 4 days, 0.01 µM for the given compounds.
Test: Cyto-toxicity (MTT assay)
Assay type: cell-based
Experimental: On day 1 calculate the number of cells required for the assay and seed 3×10^4 cells in 200 μl per well. Weigh the compound and dissolve it in DMSO to get 10 mM stock which is further diluted to 3 mM and 1 mM. […] Add DMSO to controls in a way to obtain final concentration of solvent that is not greater than 1%. Incubate for 4 days in 5% CO2 incubator at 37° C. […] Add 200 μl of 0.1N acidic isopropanol to dissolve the crystals and read the plate at 590 nm. […]
One number for each entry, in %.

Use the examples below as a reference point.
| compound | unit_of_measure | viability at 4 days, 0.01 µM |
| --- | --- | --- |
| Cc1cn(-c2ccc(C(=O)NC(C)(C)C(=O)N[C@@]34CC[C@]5(C)[C@H](CC[C@@H]6[C@@]7(C)CC[C@H](OC(=O)[C@H]8C[C@@H](C(=O)O)C8(C)C)C(C)(C)[C@@H]7CC[C@]65C)C3=C(C(C)C)C(=O)C4)cc2)cn1 [Example 20] | % | 40 |
| CC(C)C1=C2[C@H]3CC[C@@H]4[C@@]5(C)CC[C@H](OC(=O)[C@H]6C[C@@H](C(=O)O)C6(C)C)C(C)(C)[C@@H]5CC[C@@]4(C)[C@]3(C)CC[C@@]2(NC(=O)C2(NC(=O)c3ncccn3)CCC2)CC1=O [Example 44] | % | 58 |
| CC(C)C1=C2[C@H]3CC[C@@H]4[C@@]5(C)CC[C@H](OC(=O)[C@H]6C[C@@H](C(=O)O)C6(C)C)C(C)(C)[C@@H]5CC[C@@]4(C)[C@]3(C)CC[C@@]2(NC(=O)C(C)(C)NC(=O)c2ccc3[nH]c(-c4cnccn4)nc3c2)CC1=O [Example 15] | % | 44 |

The record that follows has no viability at 4 days, 0.01 µM shown yet.
Query: Using the record for CC(C)C1=C2[C@H]3CC[C@@H]4[C@@]5(C)CC[C@H](OC(=O)[C@@H]6C[C@H](C(=O)O)C6(C)C)C(C)(C)[C@@H]5CC[C@@]4(C)[C@]3(C)CC[C@@]2(NC(=O)C(C)(C)NC(=O)c2ccc(Cl)cc2)CC1=O [Example 21] , state its measured viability at 4 days, 0.01 µM.
Reply: 36
